procedure-summary: gradient 5% acetonitrile 3 min, to 50% in 2 min, to 85% in 15 min, held 3 min, 100 µL/min
assay-conditions: column: Zorbax Extend-C18 2.1 x 50 mm; eluents: water / acetonitrile, 0.1% formic acid
readout-type: RP-LC retention time (s)

| molecule | uom | RP-LC retention time |
| --- | --- | --- |
| O=C(Cn1ccn2nc(-c3ccccc3)c(CO)c2c1=O)Nc1ccc(F)cc1F | s | 781 |
| CC(C)CNC(=O)N1CCCN(S(C)(=O)=O)CC1 | s | 615 |
| CC(Cc1cccs1)NC(=O)CCS(=O)(=O)c1ccccc1 (stereo not given) | s | 746 |
| c1ccc(-c2nnc(-c3ccccc3OCc3cn4ccccc4n3)o2)cc1 | s | 702 |
| Clc1ccccc1N1CCN(Cc2nnc(-c3ccccc3)o2)CC1 | s | 768 |

====

procedure-summary: gradient 5% acetonitrile 3 min, to 50% in 2 min, to 85% in 15 min, held 3 min, 100 µL/min
assay-conditions: column: Zorbax Extend-C18 2.1 x 50 mm; eluents: water / acetonitrile, 0.1% formic acid
readout-type: RP-LC retention time (s)

Check out these entries, answers already filled in.
| molecule | RP-LC retention time (s) |
| --- | --- |
| COc1ccc(OC)c(NC(=O)Cn2ccc3c(=O)n(C)c(=O)n(C)c32)c1 | 670 |
| CC1Oc2ccccc2C=C1/C=C1\Oc2cc(OC(=O)N(C)C)ccc2C1=O (stereo not given) | 795 |
| Cc1sc(-c2cc(C(F)(F)F)on2)cc1S(=O)(=O)N1CCN(c2ccccc2)CC1 | 1300 |
| CN(C)c1ccc(/C=C2\Cc3ccccc3C2=O)cc1Br | 1170 |
| COCCNC(=O)C1CCN(c2cnc(N3CCCCCC3)nc2)CC1 | 617 |

P: Cc1ccc(S(=O)(=O)N2CCC(CCC(=O)NCc3cccc(C)c3)CC2)cc1
Q: CCCN1CCN(C(=O)CN2C(=O)C3CCCCN3c3ccc(S(=O)(=O)N(C)C)cc32)CC1 (stereo not given)
Request: Form: Entry with minimum RP-LC retention time (choose one): P / Q Answer = label.
Response: Q
(Q: 628 s, P: 956 s)

I: O=C(COc1cccc(Cl)c1)Nc1nc(-c2ccccc2)cs1
II: O=C(Nc1ccc2c(c1)CN(C(=O)c1cc(C3CC3)[nH]n1)CCO2)C1CC1
Request: Would you let me know which has the greater RP-LC retention time value, I or II ? Answer = label.
Response: I
(I: 1110 s, II: 696 s)

1: Cc1ccc(Sc2nccnc2N2CCC(C(=O)NCc3ccccc3C)CC2)cc1
2: O=C(c1cc(-c2ccncc2)n[nH]1)N1CCCC(C(=O)N2CCc3ccccc3C2)C1 (stereo not given)
Request: Would you let me know which has the greater RP-LC retention time value, 1 or 2 ? Answer = label.
Response: 1
(1: 1150 s, 2: 608 s)

P: O=C(NCCc1ccco1)C1CCN(Cc2cc3ccccc3n2Cc2cccc(Cl)c2)CC1
Q: Cn1cnnc1SCCNC(=O)Cc1csc(Nc2ncccn2)n1
Request: Would you let me know which has the greater RP-LC retention time value, P or Q ? Answer = label.
Response: P
(P: 813 s, Q: 564 s)

I: O=C1NC(C(=O)NCC2CCCCC2)Cn2cccc21 (stereo not given)
II: Cc1ccc(Cl)cc1N1CCN(C(=O)CCN2C(=O)C3C4C=CC(C4)C3C2=O)CC1 (stereo not given)
Request: Would you let me know which has the greater RP-LC retention time value, I or II ? Answer = label.
Response: II

====

procedure-summary: gradient 5% acetonitrile 3 min, to 50% in 2 min, to 85% in 15 min, held 3 min, 100 µL/min
assay-conditions: column: Zorbax Extend-C18 2.1 x 50 mm; eluents: water / acetonitrile, 0.1% formic acid
readout-type: RP-LC retention time (s)

1: CCCn1c(=O)c(N2CCN(C(=O)C3CC3)CC2)nc2ccccc21
2: CC(C)n1cnc2cc(CNC(=O)c3ccc4c(c3)OCO4)ccc21
Request: Would you let me know which has the greater RP-LC retention time value, 1 or 2 ? Answer = label.
Response: 1

====

procedure-summary: gradient 5% acetonitrile 3 min, to 50% in 2 min, to 85% in 15 min, held 3 min, 100 µL/min
assay-conditions: column: Zorbax Extend-C18 2.1 x 50 mm; eluents: water / acetonitrile, 0.1% formic acid
readout-type: RP-LC retention time (s)

| compound | result-value |
| --- | --- |
| NCCNS(=O)(=O)c1cccc2c(Cl)cccc12 | 701 |
| CC(C)n1cnc(S(=O)(=O)N2CCCC(C(=O)NCc3ccccc3)C2)c1 (stereo not given) | 702 |
| O=c1ccc(N2CCC(NS(=O)(=O)c3ccccc3Cl)CC2)nn1CC1CC1 | 747 |
| O=C(Nc1cc(F)cc(F)c1)NC1CCN(c2ccccc2)C1=O (stereo not given) | 851 |
| COc1ccccc1CC1C(=O)Nc2ccc(Cl)cc21 (stereo not given) | 948 |

====

procedure-summary: gradient 5% acetonitrile 3 min, to 50% in 2 min, to 85% in 15 min, held 3 min, 100 µL/min
assay-conditions: column: Zorbax Extend-C18 2.1 x 50 mm; eluents: water / acetonitrile, 0.1% formic acid
readout-type: RP-LC retention time (s)

| compound | RP-LC retention time [s] |
| --- | --- |
| CCc1ccc(S(=O)(=O)Nc2ccc(-c3cn4cccc(C)c4n3)cc2)cc1 | 667 |
| Cc1cc(C)cc(NC(=O)Cn2c(=O)nc(N3CCC(C)CC3)c3ccccc32)c1 | 925 |
| COc1ccccc1NC(=O)N1CCN(c2cc(C)nc(N3CCCC3)n2)CC1 | 673 |
| COc1coc(C(=O)N2CCN(S(C)(=O)=O)CC2)cc1=O | 548 |
| COc1ccc(OC)c(S(=O)(=O)Nc2ccc(Br)cc2C)c1 | 945 |
| Cc1cc(=O)c2cc(C(=O)c3ccccc3)ccc2[nH]1 | 718 |
| CCCC1c2nccn2CCCN1C(=O)Cc1c(C)noc1C (stereo not given) | 579 |
| O=C(Cc1nnc(-c2ccc3ncccc3c2)o1)Nc1cc(F)cc(F)c1 | 784 |
| Cc1ccc(-c2cn3c(CC(=O)NCCCc4ccccc4)csc3n2)cc1C | 887 |
| CCCNC(=O)C1CCN(c2ccc(SCC(=O)Nc3ccc(C(=O)OCC)cc3)nn2)CC1 | 677 |

====

procedure-summary: gradient 5% acetonitrile 3 min, to 50% in 2 min, to 85% in 15 min, held 3 min, 100 µL/min
assay-conditions: column: Zorbax Extend-C18 2.1 x 50 mm; eluents: water / acetonitrile, 0.1% formic acid
readout-type: RP-LC retention time (s)

Check out these entries, answers already filled in.
| compound | result-value |
| --- | --- |
| CCN(C(=O)Cn1ccc2c(=O)n(C)c(=O)n(C)c21)c1cccc(Cl)c1 | 747 |
| CCOCCCNC(=O)N1CCCC(c2nn[nH]n2)C1 (stereo not drawn) | 591 |
| CCCCN(CC)S(=O)(=O)c1ccc(C(=O)Nc2nc3c(s2)Cc2ccccc2-3)cc1 | 1230 |
| COc1ccc(NC(=O)NC2CCN(c3cc(N4CCCC4)cnn3)C2)c(C)c1 (stereo not drawn) | 626 |
| Cc1sc2ccn(CC(C)C)c(=O)c2c1C(=O)NCc1cc(F)cc(F)c1 | 1070 |
| Cc1ccccc1NC(=O)N1CCC(N(CCC(C)C)C2CCOCC2)CC1 | 636 |

1: O=C(Cn1c(=O)c2cccn2c2ccc(F)cc21)N1CCN(c2ccccn2)CC1
2: COC(=O)c1ccccc1NC(=O)c1ccc(F)cc1
Request: Form: Entry with minimum RP-LC retention time (choose one): 1 / 2 Answer = label.
Response: 1

I: CCn1nccc1C(=O)N1CCCN(C2=NS(=O)(=O)C(c3ccccc3)=C2C)CC1
II: CC(C)n1c(=O)oc2cc(-c3noc(-c4cccc(Br)c4)n3)ccc21
Request: Form: Entry with minimum RP-LC retention time (choose one): I / II Answer = label.
Response: I

P: CCN(CC)C(=O)c1ccc(-c2nc3cc(NS(=O)(=O)c4ccc(F)cc4)ccc3n2C)cc1
Q: Cn1ccc2cc(S(=O)(=O)N3CCCC(C(=O)NCCC4=CCCCC4)C3)ccc21 (stereo not drawn)
Request: Form: Entry with minimum RP-LC retention time (choose one): P / Q Answer = label.
Response: P
(P: 699 s, Q: 1040 s)

====

procedure-summary: gradient 5% acetonitrile 3 min, to 50% in 2 min, to 85% in 15 min, held 3 min, 100 µL/min
assay-conditions: column: Zorbax Extend-C18 2.1 x 50 mm; eluents: water / acetonitrile, 0.1% formic acid
readout-type: RP-LC retention time (s)

| compound | readout-type | uom | result-value |
| --- | --- | --- | --- |
| Cc1cc(C(=O)N2CCC3(CC2)CC(O)CCO3)c(C)o1 (stereo not given) | RP-LC retention time | s | 624 |
| O=C1CCCc2cc(S(=O)(=O)N3CCC(C(=O)NCc4ccc(F)cc4)CC3)ccc2N1 | RP-LC retention time | s | 724 |
| CCN1CCC2(CC1)OC(=O)C(C)=C2C(=O)NCCCN1CCC(Cc2ccccc2)CC1 | RP-LC retention time | s | 583 |
| Cc1oc(-c2cccc(Cl)c2)nc1Cn1nnc(-c2nc(-c3ccc(F)cc3)no2)c1C | RP-LC retention time | s | 869 |
| O=C(CSCc1ccccc1)Nc1c(-c2ccc(F)cc2)nc2ccccn12 | RP-LC retention time | s | 714 |
| O=C(c1noc2c1CSc1ccccc1-2)N1CCN(c2ccccn2)CC1 | RP-LC retention time | s | 719 |
| CC(=O)Nc1ccc(S(=O)(=O)N=S(C)C)cc1 | RP-LC retention time | s | 608 |
| Oc1c(C(c2ccc(F)cc2)N2CCN(c3cccc(Cl)c3)CC2)sc2ncnn12 (stereo not given) | RP-LC retention time | s | 852 |

1: CCOc1ccc(NC(=O)N2CCC3(CC2)NC(=O)c2ccc(Cl)cc2N3CC)cc1
2: CCCCOc1ccc(-c2nc(C3CC(=O)N(c4ccc(Cl)cc4)C3)no2)cc1 (stereo not given)
3: CCOC(=O)C1CCCN(CC(O)COc2ccccc2C(C)=O)C1 (stereo not given)
Request: Arrange these compounds by their RP-LC retention time, starting with the largest number. Show the ranking through the labels, in the order asked for.
Response: 2, 1, 3
(2: 1350 s, 1: 874 s, 3: 556 s)

Source: the METLIN SMRT retention time set (Domingo-Almenara et al. 2019)
